Reference source: ChEMBL document CHEMBL3351405

TEST_PROTOCOL: Clearance in human liver microsomes assessed as extraction ratio
Assay type: ADME
CONDITION_DESCRIPTION: read-out: ERH
Entries and their hepatic extraction ratio
Output spec: single numeric token, no unit.

Here is how some compounds turned out for hepatic extraction ratio.
| COMPOUND | hepatic extraction ratio |
| --- | --- |
| CCOC(=O)[C@@]1(Cc2ccccc2)CCCc2cnc3c(-c4ccc(C(F)(F)F)cc4)cnn3c21 | 0.71 |
| CCOC(=O)[C@@]1(Cc2ccccc2)CCc2cnc3c(-c4ccc(C(F)(F)F)cc4)cnn3c21 | 0.96 |
| COC(=O)C1(Cc2ccccc2)COc2cnc3c(-c4ccc(C(F)(F)F)cc4)cnn3c21 (racemic) | 0.88 |

**Q:** Quick one: hepatic extraction ratio for [2H]C([2H])(O)c1nn2c3c(cnc2c1-c1ccc(C(F)(F)F)cc1)CN[C@]3(Cc1cccc(F)c1)C(=O)OC ?
**A:** 0.83

**Q:** Quick one: hepatic extraction ratio for COC(=O)[C@@]1(Cc2cccc(F)c2)NCc2cnc3c(-c4ccc(C(F)(F)F)nc4)c(CO)nn3c21 ?
**A:** 0.82

**Q:** Quick one: hepatic extraction ratio for COC(=O)C1(Cc2ccccc2)CCc2cnc3c(-c4ccc(S(C)(=O)=O)cc4)cnn3c21 (racemic) ?
**A:** 0.89
